I'd appreciate it if you could supply pEC50 values for the items below.
Biological target: Nuclear receptor subfamily 4 group A member 2/Retinoic acid receptor RXR-alpha (Homo sapiens, UniProt P19793+P43354)
Sequence (P19793 whole entry): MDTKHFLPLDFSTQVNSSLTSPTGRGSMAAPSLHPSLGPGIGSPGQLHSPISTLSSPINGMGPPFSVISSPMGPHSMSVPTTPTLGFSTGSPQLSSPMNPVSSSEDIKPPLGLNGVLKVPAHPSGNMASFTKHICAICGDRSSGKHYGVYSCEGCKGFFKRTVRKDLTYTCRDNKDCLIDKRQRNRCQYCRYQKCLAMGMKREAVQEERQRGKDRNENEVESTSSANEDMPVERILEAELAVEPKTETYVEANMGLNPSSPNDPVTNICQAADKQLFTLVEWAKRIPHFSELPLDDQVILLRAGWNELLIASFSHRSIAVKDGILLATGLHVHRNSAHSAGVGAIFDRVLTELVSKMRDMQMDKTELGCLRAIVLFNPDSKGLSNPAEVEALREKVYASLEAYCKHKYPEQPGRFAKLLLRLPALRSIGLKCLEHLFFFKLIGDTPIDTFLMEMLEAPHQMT
Sequence (P43354 whole entry): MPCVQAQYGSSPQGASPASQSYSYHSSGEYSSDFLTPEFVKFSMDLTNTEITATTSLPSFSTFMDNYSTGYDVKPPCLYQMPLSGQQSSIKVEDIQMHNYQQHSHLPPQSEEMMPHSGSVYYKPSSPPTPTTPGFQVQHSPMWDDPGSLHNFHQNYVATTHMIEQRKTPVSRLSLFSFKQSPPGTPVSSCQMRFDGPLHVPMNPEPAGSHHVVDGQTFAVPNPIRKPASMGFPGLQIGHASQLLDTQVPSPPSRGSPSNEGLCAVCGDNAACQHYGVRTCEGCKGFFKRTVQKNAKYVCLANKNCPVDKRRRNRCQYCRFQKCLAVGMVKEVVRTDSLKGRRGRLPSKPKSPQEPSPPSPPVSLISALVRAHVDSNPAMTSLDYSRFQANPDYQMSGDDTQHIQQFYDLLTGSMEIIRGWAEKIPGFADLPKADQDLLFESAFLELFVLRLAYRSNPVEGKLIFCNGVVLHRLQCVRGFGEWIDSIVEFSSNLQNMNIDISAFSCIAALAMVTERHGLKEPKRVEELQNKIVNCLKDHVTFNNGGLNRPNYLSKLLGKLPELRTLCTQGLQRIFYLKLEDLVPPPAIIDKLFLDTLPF
Experiment: Agonist activity at Renilla luciferase/GFP2-tagged RXRalpha/Nurr1 (unknown origin) expressed in HEK293T cells by BRET2 assay
Assay type: cell-based, HEK-293T
Remember the convention: pEC50 equals -log10 of concentration in molar.

Request: Name the recorded pEC50 for `CC1(C)CCC(C)(C)c2cc3c(cc21)O[C@@H]1CCCC[C@]31c1ccc(C(=O)O)cc1` .
Response: 7.90

Request: Name the recorded pEC50 for `CC1(C)CCC(C)(C)c2cc3c(cc21)O[C@@H]1CCC[C@]31c1ccc(C(=O)O)cc1` .
Response: 7.90

Request: Name the recorded pEC50 for `CC1(C)CCC(C)(C)c2cc3c(cc21)O[C@H]1CCC[C@@]31c1ccc(C(=O)O)cc1` .
Response: 6.30
